- Target under test: NLRP3 inflammasome (Homo sapiens, UniProt Q96P20)
- Sequence (Q96P20 whole entry): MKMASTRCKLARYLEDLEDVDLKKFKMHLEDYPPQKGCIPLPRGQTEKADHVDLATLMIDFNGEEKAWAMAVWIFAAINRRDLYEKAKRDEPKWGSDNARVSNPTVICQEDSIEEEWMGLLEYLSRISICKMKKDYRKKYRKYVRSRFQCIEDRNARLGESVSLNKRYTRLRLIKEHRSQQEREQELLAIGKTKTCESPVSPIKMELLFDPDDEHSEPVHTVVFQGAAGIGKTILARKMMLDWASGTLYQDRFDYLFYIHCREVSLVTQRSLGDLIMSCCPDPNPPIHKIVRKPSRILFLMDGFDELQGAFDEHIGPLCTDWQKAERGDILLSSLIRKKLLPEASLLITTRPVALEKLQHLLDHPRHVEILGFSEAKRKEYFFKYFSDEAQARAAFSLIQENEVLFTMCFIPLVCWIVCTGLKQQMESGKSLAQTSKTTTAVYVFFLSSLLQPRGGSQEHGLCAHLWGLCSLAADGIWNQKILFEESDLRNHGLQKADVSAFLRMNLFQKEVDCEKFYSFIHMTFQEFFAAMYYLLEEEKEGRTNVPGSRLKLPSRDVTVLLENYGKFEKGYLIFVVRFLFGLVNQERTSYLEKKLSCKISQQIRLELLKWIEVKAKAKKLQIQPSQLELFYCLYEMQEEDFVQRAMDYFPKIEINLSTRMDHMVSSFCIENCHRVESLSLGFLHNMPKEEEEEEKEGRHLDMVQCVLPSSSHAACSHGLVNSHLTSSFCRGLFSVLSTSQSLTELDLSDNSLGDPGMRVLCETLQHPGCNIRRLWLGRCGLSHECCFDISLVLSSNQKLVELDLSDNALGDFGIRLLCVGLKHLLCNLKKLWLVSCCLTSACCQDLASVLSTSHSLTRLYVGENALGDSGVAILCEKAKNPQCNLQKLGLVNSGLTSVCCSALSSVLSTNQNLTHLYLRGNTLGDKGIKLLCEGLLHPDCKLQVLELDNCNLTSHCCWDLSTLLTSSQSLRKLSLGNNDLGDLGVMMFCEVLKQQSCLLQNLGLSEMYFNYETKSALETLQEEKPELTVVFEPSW
- Assay overview: THP-1 ASC-GFP speck assay
- Format: cell-based
- Design: host or cells: THP-1 ASC-GFP cells, PMA-differentiated, LPS-primed, nigericin-stimulated
- Assay conditions: THP-1 ASC-GFP cells, PMA differentiated, LPS primed, 10 μM nigericin; read-out: THP1 ASC Speck IC50
pIC50: −log10 of the molar value.
Measurement kind: pIC50

[[record]]
compound = "CNC1COc2c(S(N)(=O)=NC(=O)Nc3c4c(c(F)c5c3CCC5)CCC4)cnn2C1 (single isomer, unassigned) [Example 83]"
measurement_kind = "pIC50"
modifier_sign = "="
reported_result = 8.10

[[record]]
compound = "COC1CCn2ncc(S(N)(=O)=NC(=O)Nc3c4c(cc5c3CCC5)CCC4)c2OC1 (single isomer, unassigned) [Example 93]"
measurement_kind = "pIC50"
modifier_sign = "="
reported_result = 6.44

[[record]]
compound = "CC1CCOc2c(S(N)(=O)=NC(=O)Nc3c4c(cc5c3CCC5)CCC4)cnn2C1 (single isomer, unassigned) [Example 66]"
measurement_kind = "pIC50"
modifier_sign = "<"
reported_result = 4.70

[[record]]
compound = "COC1CCOc2c(S(N)(=O)=NC(=O)Nc3c4c(cc5c3CCC5)CCC4)cnn2C1 (single isomer, unassigned) [Example 89]"
measurement_kind = "pIC50"
modifier_sign = "<"
reported_result = 4.70

[[record]]
compound = "NS(=O)(=NC(=O)Nc1c2c(cc3c1CC3)CCC2)c1cnn2c1OCCC2 (single isomer, unassigned) [Example 142]"
measurement_kind = "pIC50"
modifier_sign = "="
reported_result = 7.08

[[record]]
compound = "CN1CCCn2ncc(S(N)(=O)=NC(=O)Nc3c4c(cc5c3CCC5)CCC4)c21 (single isomer, unassigned) [Example 107]"
measurement_kind = "pIC50"
modifier_sign = "="
reported_result = 5.05


###

// reported IC50 per item
- Target under test: UniProt:Q96P20
- Assay overview: THP-1 ASC-GFP speck assay
- Assay type: cell-based
- Parameters: host or cells: THP-1 ASC-GFP cells, PMA-differentiated, LPS-primed, nigericin-stimulated
- Assay conditions: THP-1 ASC-GFP cells, PMA differentiated, LPS primed, 10 μM nigericin; read-out: THP1 ASC Speck IC50
Measurement kind: IC50 (nM)

[[record]]
compound = "NS(=O)(=NC(=O)Nc1c2c(cc3c1CCC3)CCC2)c1cnn2c1CCOCC2 (single isomer, unassigned) [Example 118]"
measurement_kind = "IC50"
modifier_sign = ">"
reported_result = 20000

[[record]]
compound = "NS(=O)(=NC(=O)Nc1c2c(cc3c1CCC3)CCC2)c1cnn2c1NCCC2 (single isomer, unassigned) [Example 73]"
measurement_kind = "IC50"
modifier_sign = ">"
reported_result = 20000

[[record]]
compound = "CC1(C)Cn2ncc(S(N)(=O)=NC(=O)Nc3c4c(cc5c3CCC5)CCC4)c2O1 (single isomer, unassigned) [Example 139]"
measurement_kind = "IC50"
modifier_sign = "="
reported_result = 4.3

[[record]]
compound = "NS(=O)(=NC(=O)Nc1c2c(cc3c1CCC3)CCC2)c1cnn2c1SCCC2 (single isomer, unassigned) [Example 100]"
measurement_kind = "IC50"
modifier_sign = "="
reported_result = 2700

[[record]]
compound = "COC1CN([C@@H]2COc3c([S@@](=O)(=NC(=O)Nc4c5c(c(F)c6c4CCC6)CCC5)NC#N)cnn3C2)C1 (stereo in doubt)"
measurement_kind = "IC50"
modifier_sign = "="
reported_result = 140

[[record]]
compound = "CC(C)c1nn(CC(F)F)c(C(C)C)c1NC(=O)N=S(N)(=O)c1cnn2c1OCCC2 (single isomer, unassigned) [Example 96]"
measurement_kind = "IC50"
modifier_sign = ">"
reported_result = 20000

[[record]]
compound = "CN1CCCn2ncc(S(N)(=O)=NC(=O)Nc3c4c(cc5c3CCC5)CCC4)c21 (single isomer, unassigned) [Example 108]"
measurement_kind = "IC50"
modifier_sign = ">"
reported_result = 20000

[[record]]
compound = "COC1CCn2ncc(S(N)(=O)=NC(=O)Nc3c4c(cc5c3CCC5)CCC4)c2OC1 (single isomer, unassigned) [Example 92]"
measurement_kind = "IC50"
modifier_sign = "="
reported_result = 8200

[[record]]
compound = "COC1CN(C2COc3c(S(N)(=O)=NC(=O)Nc4c5c(c(F)c6c4CCC6)CCC5)cnn3C2)C1 (single isomer, unassigned) [Example 42]"
measurement_kind = "IC50"
modifier_sign = "="
reported_result = 18

[[record]]
compound = "COc1cc(C(C)C)c(NC(=O)N=S(N)(=O)c2cnn3c2OCC(OC)C3)c(C(C)C)n1 (single isomer, unassigned) [Example 52]"
measurement_kind = "IC50"
modifier_sign = ">"
reported_result = 20000

[[record]]
compound = "CNC1CCn2ncc(S(N)(=O)=NC(=O)Nc3c4c(cc5c3CCC5)CCC4)c2OC1 (single isomer, unassigned) [Example 130]"
measurement_kind = "IC50"
modifier_sign = "="
reported_result = 14000

[[record]]
compound = "CO[C@@H]1CCOc2c([S@](=O)(=NC(=O)Nc3c4c(cc5c3CCC5)CCC4)NC#N)cnn2C1 (single isomer, unassigned)"
measurement_kind = "IC50"
modifier_sign = "="
reported_result = 2700

[[record]]
compound = "NS(=O)(=NC(=O)Nc1c2c(c(F)c3c1CCC3)CCC2)c1cnn2c1OCCC2 (single isomer, unassigned)"
measurement_kind = "IC50"
modifier_sign = "="
reported_result = 150


###

- Tested on: PBMCs
- Assay overview: CTG (CellTiter-Glo) viability assay in PBMCs
- Format: cell-based
- Assay conditions: Homo sapiens, PBMC, LPS and nigericin stimulated
Catalogue of compounds with associated IC50
Measurement kind: IC50

[[record]]
compound = "CC(C)c1cc(F)cc(C(C)C)c1NC(=O)NS(=N)(=O)c1cnn2c1OCCC2 (stereo not drawn) [drawing 655]"
reported_result = "< 100 nM"

[[record]]
compound = "CNS(=O)(=NC(=O)Nc1c2c(cc3c1CCC3)CCC2)c1cnn2c1OCCC2 (racemic)"
reported_result = "> 10000 nM"

[[record]]
compound = "NS(=O)(=NC(=O)Nc1c2c(c(F)c3c1CCC3)CCC2)c1cnn2c1OCCC2 (single isomer, unassigned) [drawing 669]"
reported_result = "< 100 nM"

[[record]]
compound = "NS(=O)(=NC(=O)Nc1c2c(cc3c1CCC3)CCC2)c1cnn2c1OCCC2 (stereo not drawn)"
reported_result = "100 to 1000 nM"

[[record]]
compound = "CO[C@@H]1COc2c(S(=N)(=O)NC(=O)Nc3c4c(c(F)c5c3CCC5)CCC4)cnn2C1 (stereo partly drawn) [drawing 666]"
reported_result = "< 100 nM"

[[record]]
compound = "CN(C)C1COc2c(S(N)(=O)=NC(=O)Nc3c4c(cc5c3CCC5)CCC4)cnn2C1 (single isomer, unassigned)"
reported_result = "2 nM"

[[record]]
compound = "NS(=O)(=NC(=O)Nc1c2c(c(C(=O)O)c3c1CCC3)CCC2)c1cnn2c1OCCC2 (racemic) [Example 37]"
reported_result = "> 10000 nM"

[[record]]
compound = "N=S(=O)(NC(=O)Nc1c2c(cc3c1CCC3)CCC2)c1cnn(CC2CC2)c1 (stereo not drawn)"
reported_result = "100 to 1000 nM"

[[record]]
compound = "NS(=O)(=NC(=O)Nc1c2c(c(F)c3c1CCC3)CCC2)c1cnn2c1OCC2 (racemic) [Example 29]"
reported_result = "3750 nM"


###

- Target under test: NLRP3 inflammasome (Homo sapiens, UniProt Q96P20)
- Assay overview: NLRP3 inflammasome activation assay in Kupffer cells, IL-1β release
- Type: cell-based
- Parameters: were freshly isolated from human peripheral blood from healthy donors; StemCells Technologies; host or cells: primary human PBMCs, LPS-primed, nigericin-stimulated
- Assay conditions: LPS primed, nigericin, read-out: Kupffer IL-β B IC50
Measurement kind: IC50

[[record]]
molecule = "NS(=O)(=NC(=O)Nc1c2c(cc3c1CCC3)CCC2)c1cnn2c1OCCC2 (stereo not drawn)"
reported_result = "100 to 1000 nM"

[[record]]
molecule = "CN[C@@H]1COc2c(S(=N)(=O)NC(=O)Nc3c4c(cc5c3CCC5)CCC4)cnn2C1 (stereo partly drawn) [drawing 674]"
reported_result = "< 100 nM"

[[record]]
molecule = "CO[C@@H]1COc2c(S(=N)(=O)NC(=O)Nc3c4c(cc5c3CCC5)CCC4)cnn2C1 (stereo partly drawn) [drawing 668]"
reported_result = "< 100 nM"


###

- Target under test: UniProt Q96P20
- Assay overview: THP-1 ASC-GFP speck assay
- Format: cell-based
- Parameters: host or cells: THP-1 ASC-GFP cells, PMA-differentiated, LPS-primed, nigericin-stimulated
- Assay conditions: THP-1 ASC-GFP cells, PMA differentiated, LPS primed, 10 μM nigericin; read-out: THP1 ASC Speck IC50
- Experimental: THP-1 ASC-GFP cell line was purchased from Invivogen, San Diego, for inflammasome activation assay. THP-1 ASC-GFP cells stably express a 37.6 kDa ASC::GFP fusion protein that enables monitoring of spec formation by microscopy after activation of NLRP3 dependent inflammasome pathway. […] THP-1 ASC-GFP cells were imaged in 488 and Hoechst channels. […] Percentage of cells with a spec was calculated by dividing the number of GFP positive spots by total number of cells.
The entries below come with measured IC50 values attached.
Measurement kind: IC50

[[record]]
molecule = "N#CNS(=O)(=NC(=O)Nc1c2c(cc3c1CCC3)CCC2)c1cnn2c1OCCC2 (single isomer, unassigned) [Example 69]"
reported_result = "30 nM"

[[record]]
molecule = "CC(C)c1nn(CC2CC2)c(C(C)C)c1NC(=O)N=S(N)(=O)c1cnn2c1OCCC2 (single isomer, unassigned) [Example 113]"
reported_result = "> 20000 nM"

[[record]]
molecule = "COc1cc(C(C)C)c(NC(=O)N=S(N)(=O)c2cnn3c2OCC(C)(C)C3)c(C(C)C)n1 (single isomer, unassigned) [Example 77]"
reported_result = "> 20000 nM"

[[record]]
molecule = "N[C@@H]1COc2c([S@@](N)(=O)=NC(=O)Nc3c4c(cc5c3CCC5)CCC4)cnn2C1"
reported_result = "260 nM"

[[record]]
molecule = "CN(C)C1COc2c(S(N)(=O)=NC(=O)Nc3c4c(cc5c3CCC5)CCC4)cnn2C1 (single isomer, unassigned)"
reported_result = "1600 nM"

[[record]]
molecule = "CO[C@@H]1CCOc2c([S@@](=O)(=NC(=O)Nc3c4c(cc5c3CCC5)CCC4)NC#N)cnn2C1 (single isomer, unassigned)"
reported_result = "800 nM"

[[record]]
molecule = "CC1CCOc2c(S(N)(=O)=NC(=O)Nc3c4c(cc5c3CCC5)CCC4)cnn2C1 (single isomer, unassigned) [Example 67]"
reported_result = "1400 nM"

[[record]]
molecule = "CC(C)c1nn(CC(F)F)c(C(C)C)c1NC(=O)N=S(N)(=O)c1cnn2c1OCCC2 (single isomer, unassigned) [Example 97]"
reported_result = "1300 nM"

[[record]]
molecule = "COC1COc2c(S(N)(=O)=NC(=O)Nc3c4c(cc5c3C(C)CC5)CCC4)cnn2C1 (single isomer, unassigned) [Example 150]"
reported_result = "24 nM"

[[record]]
molecule = "CC1CCc2cc3c(c(NC(=O)N=S(N)(=O)c4cnn5c4OCC(C)(C)C5)c21)CCC3 (single isomer, unassigned) [Example 135]"
reported_result = "> 20000 nM"

[[record]]
molecule = "COC1COc2c(S(=O)(=NC(=O)Nc3c4c(cc5c3CCC5)CCC4)NC(C)=O)cnn2C1 (single isomer, unassigned) [Example 116]"
reported_result = "2100 nM"

[[record]]
molecule = "CC1(C)COc2c(S(N)(=O)=NC(=O)Nc3c4c(cc5c3CC(F)C5)CCC4)cnn2C1 (single isomer, unassigned) [Example 153]"
reported_result = "1400 nM"

[[record]]
molecule = "COc1cc(-c2ccc(NC(=O)N=S(N)(=O)c3cnn4c3OCC(OC)C4)c3c2CCC3)ccn1 (single isomer, unassigned) [Example 152]"
reported_result = "4100 nM"

